Recorded GI50 for the following molecules
# Test system: SF-295
# Measurement Notes: NCI tumour cell line growth inhibition, 48 h
Active and inactive are the calls of the source. Cut-off read from the data, not from the text of the source: active = GI50 up to about 1.1 µM and inactive = higher.

CCOC(=O)CCC1(C(=O)OCC)CCCC1=O (stereo unspecified) ... > 100 µM (inactive)

Now for another entry.
Input: Given the molecule "N#Cc1nc(Sc2cnsn2)c(Sc2cnsn2)nc1C#N" , what is its reported GI50?
Output: 16.6 µM (inactive)

====

Recorded GI50 for the following compounds
# Test system: NCI-H226
# Measurement Notes: NCI tumour cell line growth inhibition, 48 h
Calls of active or inactive are those of the source. Rule as the data show it: active = GI50 up to about 1.1 µM and inactive = higher.

Cc1ccc2[nH]c3c(c2c1)C1CCC(C(C)(C)C)CC1C1C(=O)N(c2ccc4c(c2)OCO4)C(=O)C31 (stereo not given) ... 2.84 µM (inactive)
CS(=O)(=O)c1ccc(COP(N)(=O)N(CCCl)CCCl)cc1 (stereo not given) ... > 100 µM (inactive)
S=P(N1CC1)(N1CC1)N1CC1 [THIOTEPA] ... 110 µM (inactive)
O=C(O)c1c2c(cc3c1CC1(Cc4ccccc4C1=O)C3)CCC2 (stereo not given) ... 24.3 µM (inactive)

Now for another entry.
Input: Given the compound CCCC1=C(CC)C(C(=O)Nc2c(C)cccc2C)=NC(S)N1 (stereo not given) , what is its reported GI50?
Output: > 100 µM (inactive)
